# Species: Rattus norvegicus
# Test Method Notes: Open TG-GATES - Regimen: Single
# Type: toxicity, organism-based, Sprague-Dawley
# Parameters: regimen Single, gender Male, age 6 weeks
# Measurement Context: in vivo, po, 100 mg/kg, 3 h, tissue Liver, route gavage, dose level High
Hi there, I'd appreciate the recorded LIVER for every entry that follows.
# number only, unit g dropped from output

In: Look at this molecule and give its reported LIVER. "CN(C)CCN(Cc1cccs1)c1ccccn1"
Out: 8

In: Look at this molecule and give its reported LIVER. "CC1=C(/C=C/C(C)=C/C=C/C(C)=C/CO)C(C)(C)CCC1"
Out: 9.1

In: Look at this molecule and give its reported LIVER. "CN(C)CCCN1c2ccccc2CCc2ccc(Cl)cc21"
Out: 10.1

In: Look at this molecule and give its reported LIVER. "CN(C)CCCN1c2ccccc2CCc2ccccc21"
Out: 9.4

---

# Organism: Rattus norvegicus
# Test Method Notes: Open TG-GATES - Regimen: Single
# Format: toxicity, organism-based, Sprague-Dawley
# Set-up: regimen Single, gender Male, age 6 weeks
# Measurement Context: in vivo, po, 100 mg/kg, 24 h, tissue Plasma, route gavage, dose level High
Hi there, I'd appreciate the recorded TBIL for every entry that follows.
# number only, unit mg/dL dropped from output

In: Look at this molecule and give its reported TBIL. "CC1=C(/C=C/C(C)=C/C=C/C(C)=C/CO)C(C)(C)CCC1"
Out: 0.006

In: Look at this molecule and give its reported TBIL. "CN(C)CCN(Cc1cccs1)c1ccccn1"
Out: 0.01

In: Look at this molecule and give its reported TBIL. "CN(C)CCCN1c2ccccc2CCc2ccccc21"
Out: 0.062

In: Look at this molecule and give its reported TBIL. "CN(C)CCCN1c2ccccc2CCc2ccc(Cl)cc21"
Out: 0.056

---

# Species on record: Rattus norvegicus
# Test Method Notes: Open TG-GATES - Regimen: Single
# Type: toxicity, organism-based, Sprague-Dawley
# Set-up: regimen Single, gender Male, age 6 weeks
# Measurement Context: in vivo, po, 1000 mg/kg, 3 h, tissue Blood, route gavage, dose level High
Hi there, I'd appreciate the recorded Mono for every entry that follows.
# number only, unit % dropped from output

In: Look at this compound and give its reported Mono. "NC(N)=Nc1nc(CSCCC(N)=NS(N)(=O)=O)cs1"
Out: 2.8

In: Look at this compound and give its reported Mono. CCOC(=O)CCC(=O)O[C@H]1[C@H](O[C@@H]2[C@@H](C)[C@H](O[C@H]3C[C@@](C)(OC)[C@@H](O)[C@H](C)O3)[C@@H](C)C(=O)O[C@H](CC)[C@@](C)(O)[C@H](O)[C@@H](C)C(=O)[C@H](C)C[C@@]2(C)O)O[C@H](C)C[C@@H]1N(C)C [ERYTHROMYCIN ETHYLSUCCINATE]
Out: 2.8

In: Look at this compound and give its reported Mono. COc1ccc2[nH]c([S+]([O-])Cc3ncc(C)c(OC)c3C)nc2c1 (stereo not given)
Out: 3

In: Look at this compound and give its reported Mono. CC(C)OC(=O)C(C)(C)Oc1ccc(C(=O)c2ccc(Cl)cc2)cc1 [FENOFIBRATE]
Out: 3.4

In: Look at this compound and give its reported Mono. "COC1=CC(=O)C[C@@H](C)[C@]12Oc1c(Cl)c(OC)cc(OC)c1C2=O"
Out: 3
